The reader will find reported PET hydrolysis values listed item by item below.
ASSAY_NOTES: PET hydrolysis, aromatic products released after 48 h (umol product/mg enzyme); higher = more PET depolymerization activity
SETUP_CONDITIONS: substrate: aFilm; 40 °C; pH 8.5
Form field (numeric): enter value without unit.

These solved cases illustrate the format of a correct answer.
- CHAIN: "ADTPYERGPNPSESLIEQRRGNYDIAQRSISRFSSDGFRNGTIYYPTDTSDGKFGVIAISPGYTAGESSIAWLGSRIASFGFVVVTINTTTRYDQPRQRSTQLLAALDHAMNDSVVGPLIDPERQAVMGHSMGGGGALQAAESRPEIDAVVALTPWNLKKNWDGVDAATLIIGAERDTVASVRTHSIPFYESLTQAEQRGYLELRGASHFAPNVSNTTIAKYSIAWMKRYLDNDDRYDQFLNPGPAVGYASGVSDYRLQ [DP003]"
  PET hydrolysis: 3
- CHAIN: "MSNPYQRGPNPTRSALTADGPFSVATYTVSRLSVSGFGGGVIYYPTGTSLTFGGIAMSPGYTADASSLAWLGRRLASHGFVVLVINTNSRFDGPDSRASQLSAALNYLRTSSPSAVRARLDANRLAVAGHSMGGGGTLRIAEQNPSLKAAVPLTPWHTDKTFNTSVPVLIVGAEADTVAPVSQHAIPFYQNLPSTTPKVYVELCNASHIAPNSNNAAISVYTISWMKLWVDNDTRYRQFLCNVNDPALCDFRTNNRHCQLEHHHHHH [LCC-ICCG]"
  PET hydrolysis: 73

Ask: Given the entry GETAQTTDVSAQSQFQRGPNPTVSSIEARTGHYRTSTTRVSSFASGFGGGTIYYPTTTSDGTFGGVAVAPGYTASSSTMDWLGPRIASQGFVVFVIDTNTRLDQPSSRGRQLLAALDYLTERSSERHRVDSNRLAVMGHSMGGGGALEATISRPSLKASIPLTPWNLTKNWSRVTTPTLIVGAENDSVASVRSHSIPFYTSLSSSTDRMYVELDGASHFAPNVSNTTIAKYSISWLKRFVDDDTRYDQFLCPLPNERAISDIRGNCPR [DP090] , report its measured PET hydrolysis.
Result: 22

====

ASSAY_NOTES: PET hydrolysis, aromatic products released after 48 h (umol product/mg enzyme); higher = more PET depolymerization activity
SETUP_CONDITIONS: substrate: cryPow; 60 °C; pH 8.5
The reader will find reported PET hydrolysis values listed item by item below.

- CHAIN: "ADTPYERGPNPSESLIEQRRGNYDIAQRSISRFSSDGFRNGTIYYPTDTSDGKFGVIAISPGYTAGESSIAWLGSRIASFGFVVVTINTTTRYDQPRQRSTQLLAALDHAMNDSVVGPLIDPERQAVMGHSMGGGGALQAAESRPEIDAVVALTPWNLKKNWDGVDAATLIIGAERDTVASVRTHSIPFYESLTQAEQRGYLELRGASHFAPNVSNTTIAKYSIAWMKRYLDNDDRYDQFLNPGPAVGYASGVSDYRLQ [DP003]"
  PET hydrolysis: "< 3"
- CHAIN: "AAGYERGPNPTSSALEATRGPFSVASTNVSSLSASGFGGGTIYYPTDTSQGTFGGVVIAPGYTASKSSMAWLAERLASHGFVVFNIDTITRSDQPDSRGRQILAAADHLAEESSSTVRRRLDASRIGVMGHSMGGGGTLAAADSRPSLKAAVPLTPWHLDKSWGNVRVPTMIIGAENDTIAAVGSHSEPFYNSLSAAPEKAYLELNGASHFAPNSDNDTIAKYGISWMKRFVDEDTRYDQFLCPAPGRSTTIEEYRSSCPHS [DP086]"
  PET hydrolysis: "< 3"
- CHAIN: "SAQVTRQAAGSYARGPAPTLAGIRAALGPFAYSTVTVTAAQAGGAFGGGTIYYPDDTSQGTFGGVAAVPGYQSAEKAVAWLGPRLASQGFVVITIATNGLTDQPTARGKQLLGALDYLTAQSPAAVRQRLDPNRLAVTGHSMGGGGTLYAAWTRPSLKAAVPLAPWHTIKNWSGITVPTLVQGGTQDTTAQVGTFAEPIYQSLTGARERAYAEIADAAHGTFVRENPLIGALEVAWLKRFVDDDGRYEQFLCPAPADSELTEYRDSCPSS [DP009]"
  PET hydrolysis: "< 3"
- CHAIN: "ADNPYQRGPDPTPALVASVNGPFATASVSVPAGYGFGGGMIYYPTDTSQGTFGGIAISPGYTALFSAELAWMGPWLASHGFVVIGIETNNRNDFDEARGTQLLAALDYLTQQSPVRNRVDPNRLAVAGHSMGGGGALNAAIRRPSLKAAVGLAPFSPSSNLANDRVPTMVFSGQQDTVVTPSYVTGLYNSLPSTTQSAYLEIAGGDHGFPVGRPNQVMIRTMLPFVKIFVDYDTRYSPFLCPLSDTSGVVTYRSTCPLTPPGLPTTPPTTPPTTVPTSPPTGGPTTPPTTPSQPGGACTATYRTVNSWPGGFQGEVTVTAGNSAINGWTVRWTLDSGQAITQVWNGEVSTSGSTVSVRNAPYNGSLPPSGSTTFGFLSSGSPSSPSLTCTSP [DP059]"
  PET hydrolysis: 34

Next sequence, please.
Ask: Given the entry AANPYQRGPAPTAASVAAVTGPFATASVSVPRGNGFGGGVIYYPTDTSQGTFGGLAISPGLNGTWPGIAWLGSRLASQGFIVFGIETNNLNDSPTSRGTQLLAALDYLAQRSSVRSRLDPGRLAVAGHSMGGGGALDAALRRPSLKAAIGNAPYLPSNTLAGNRVPTLIYAMQNDTLVPPSRLTSLYNTIPATTERAYLEITGAGHNYIGQPSTTLARTMIPWLKIFIDNDTRFSQFLCPLADQSGIRQYRSSCPLVPATTRALTAAAG [DP043] , report its measured PET hydrolysis.
Result: 107

====

ASSAY_NOTES: PET hydrolysis, aromatic products released after 48 h (umol product/mg enzyme); higher = more PET depolymerization activity
SETUP_CONDITIONS: substrate: aFilm; 60 °C; pH 7.5
The reader will find reported PET hydrolysis values listed item by item below.

- CHAIN: "AANPYERGPDPTDAILEAARGPFETSRTEVPALSVTGFGGGTIYYPATTSAGTFGGVAVAPGYTADRTSLAWLAERLASHGFVVFNIDTLTRLDQPDSRGRQLLAALDYLTQRSSVRGRLDAGRLGVMGHSMGGGGTLEAARDRPSLQAAVPLTPWDLTKIWSGVRVPTMIVGAEADTIAPVASHAEPFYQSLPSSPGKAYLELNNATHFAPNVPDTTIGKYVVAWMKRFVDDDTRYTRFLCPGPSGGLTVEEYRSTCPFS [TEP194]"
  PET hydrolysis: "< 3"
- CHAIN: "ASPYQRGPNPTAASIAATTGPFAIASITVPRGNGFGGGVIYYPTSTSQGTFGGIAISPGLNGTWSGISWLGPRLASQGFVVFGIETNNLNDSPTSRGTQLLAALDYLTQRSSVRSRLDANRLAVMGHSMGGGGALDAALRRPTLKATIGNAPHLPSGSLANDRVPTLIYAMQNDTLVTPARLTSLYNTIPAATERAYIEVTGAGHNYIGQPSTTLARTMIPWLKIFIDSDTRYAPFLCPLNDRSGIRQYRNSCPLI [ESM128]"
  PET hydrolysis: "< 3"

Next sequence, please.
Ask: Given the entry QAPDRTALARTGPYQVAYYTQLPPAAEFSAATLFFPANKAQAFGGVVIAPGYTEKQVNVQWWGYHLASHGYAVLVLDTNDPEEYPDRRADALMAGVAVLRGENTRMGSTLRGKILEGRIALMGHSMGGGGTLLAANGHSDQLKTIIPFTPWLPGADFSAVSVPTLVLAGEIDRIAAVKDHAWPHYESLTGAVPRMYLEVKGGNHYIANSMTDREDRNPNIDVHDLVGSMVVAWLKTFLDDDESYRELVFGDLPEADRVRISRLEFVE [TEP006] , report its measured PET hydrolysis.
Result: < 3

====

ASSAY_NOTES: PET hydrolysis, aromatic products released after 48 h (umol product/mg enzyme); higher = more PET depolymerization activity
SETUP_CONDITIONS: substrate: cryPow; 60 °C; pH 7.5
QUANTITY: PET hydrolysis

Ask: Given the entry SAQVTRQAAGSYARGPAPTLAGIRAALGPFAYSTVTVTAAQAGGAFGGGTIYYPDDTSQGTFGGVAAVPGYQSAEKAVAWLGPRLASQGFVVITIATNGLTDQPTARGKQLLGALDYLTAQSPAAVRQRLDPNRLAVTGHSMGGGGTLYAAWTRPSLKAAVPLAPWHTIKNWSGITVPTLVQGGTQDTTAQVGTFAEPIYQSLTGARERAYAEIADAAHGTFVRENPLIGALEVAWLKRFVDDDGRYEQFLCPAPADSELTEYRDSCPSS [DP009] , report its measured PET hydrolysis.
Result: < 3

Ask: Item: CAAGGPGASPGLQPTIASLSVDGAFKVMTYTDIPDVPEFGDATVYYPADTPTPIGGVAISPGWTEAQRHINWWGPRLASHGYAVLVLDTNDARRDQPEERAEALIAAVRILRGENDRAESPLQGRVDTGKMAIMGHSMGGGGTLIAANKYPDEIQAAIPFTPWQPDGDFGQITAPTLVMAGSADRVAGVADHAWPHYQSIPETTTKVFMEVDGGNHFIADTRRGTDLGTIGRYGIAWLKLYLDGDERYRSFIYGAEAEVDREKFSRYLTSP [TEP119]
Result: < 3

Ask: Item: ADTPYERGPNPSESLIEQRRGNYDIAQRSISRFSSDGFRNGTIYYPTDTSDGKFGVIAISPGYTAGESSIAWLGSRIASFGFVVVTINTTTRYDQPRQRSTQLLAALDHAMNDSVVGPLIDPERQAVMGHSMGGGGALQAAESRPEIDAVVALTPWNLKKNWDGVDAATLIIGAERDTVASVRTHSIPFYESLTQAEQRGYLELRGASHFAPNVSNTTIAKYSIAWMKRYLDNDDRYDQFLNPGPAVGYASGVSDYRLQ [DP003]
Result: < 3

Ask: Item: AGFERGPDPSTSTLDAARGPFAVAEERVYSWRASGFGGGDIYYPTTTSEGTFGVVAVAPGYTAGRSSMAWLASRIASHGFVVINIDTLTRSDQPASRGRQLLAALDHVTSSSGVRDRVDASRQAVVGHSMGGGGALEAASSRPALQAAVPLTPWNLTKRWSSLQVPTFIVGAENDSVASVRTHAEPFYESLPAALPKAYLELNNASHFAPNTTNSTIGRYTVAWLKRYVDDDLRYSQFLCPPPPPSSAIEEFRATC [DP087]
Result: < 3

Ask: Item: ANPYERGPDPTLASVEATSGTFAYASLSVSSGNGFGGGTIYYPTSTTDGTFAGIVTCPGFTNSGSSMAWFGKVLASQGFVTLVMNPKSNLDFPDARATQMLAALDWLTNSSSVKTRIDATRLGVLGQSMGGGATLKASKTRPSLKASFATAPYNSDKDWSTNTVPQFLFGMQNDTTAAVTNHALKFYNSLPATTPKIYAELRGAGHSTATSPNTSIRRYAVSFMKRNLDNDTRYSQFLCPGPTITSSSPLSAFMSNCLF [DP080]
Result: < 3

Origin of values: the supplement of paper PMC12455559
